Organism: Rattus norvegicus
Test: Compound was tested for induction of contralateral turning behavior with unilateral lesions of the nigrostriatal pathway in rat by haloperidol; Significant at p< 0.05
Assay type: functional, organism-based
Active and inactive are the calls of the source. The calls are words filed in the database; no cut-off is given here.
Readout Kind: Antagonism

Sample answers from the record:
{"Compound": "CN1CCc2cccc3c2[C@H]1Cc1ccc(O)c(O)c1-3", "Antagonism": "Active"}
{"Compound": "CCCN(CCC)C1Cc2ccc(CO)c(O)c2C1 (stereo not given)", "Antagonism": "Active"}
{"Compound": "CCCN1CCC[C@H]2c3ccc(CO)c(O)c3CC[C@@H]21", "Antagonism": "Active"}
{"Compound": "CCCN(CCC)C1Cc2ccc(C)c(O)c2C1 (stereo not given)", "Antagonism": "Active"}

Then there is this compound:
Could you tell me which Antagonism is on file for "CCCN(CCC)CCc1ccc(C=O)c(O)c1" ?
Active

====

System: Dopamine receptor
Conditions: Felis catus
Calls of active or inactive are those of the source. No cut-off for these calls is given here.
Readout Kind: AD50

{"Compound": "CCCN(CCC)C1Cc2ccc(C(=O)O)c(O)c2C1 (stereo not given)", "Subject Of Test": "Dopamine receptor", "AD50": "inactive"}
{"Compound": "CCCN(CCC)C1CCc2c(ccc(CO)c2O)C1 (stereo not given)", "Subject Of Test": "Dopamine receptor", "AD50": "inactive"}
{"Compound": "CCCN(CCC)C1Cc2ccc(C=O)c(O)c2C1 (stereo not given)", "Subject Of Test": "Dopamine receptor", "AD50": "inactive"}
{"Compound": "CCCN1CCC[C@H]2c3ccc(CO)c(O)c3CC[C@@H]21", "Subject Of Test": "Dopamine receptor", "AD50": "inactive"}
{"Compound": "CCCN(CCC)C1CCc2c(ccc(C)c2O)C1 (stereo not given)", "Subject Of Test": "Dopamine receptor", "AD50": "inactive"}

Then there is this compound:
Could you tell me which AD50 is on file for CCCN(CCC)C1Cc2ccc(C)c(O)c2C1 (stereo not given) ?
inactive

Attribution: ChEMBL document CHEMBL1123495
